Biological target: T1, 4H754-bN
T1 chain: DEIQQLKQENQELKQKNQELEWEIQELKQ
Assay: two-hybrid library CCNG1;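 note: natural log of median RNA to DNA barcode read ratio; higher means stronger binding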
interaction score overview
Lab note: record just the number, no unit beside it.

In the examples that follow, each entry is paired with its recorded interaction score.
>  <binder>
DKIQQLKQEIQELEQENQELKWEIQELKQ [4H2586-bN]

>  <reported>
-1.88

$$$$
>  <binder>
DKNQQLEQENQELKQEIQELKWKIQELEQ [4H3277-bN]

>  <reported>
-1.54

$$$$
>  <binder>
DKNQQLKQKNQELKQKIQELKWEIQELEQ [4H4073-bN]

>  <reported>
-1.18

$$$$

Given DEIQQLKQEIQELKQENQELKWKNQELEQ [4H607-bN] , state its recorded interaction score.
-1.32

Would you mind telling me what interaction score value was observed for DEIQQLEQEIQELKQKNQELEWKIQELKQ [4H118-bN] ?
-0.655

Entry DEIQQLEQKIQELKQENQELKWEIQELKQ [4H346-bN] : reported interaction score = ?
-0.573

Quick one: interaction score for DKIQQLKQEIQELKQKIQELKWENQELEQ [4H2667-bN] ?
-0.798

Requested field: interaction score. Item: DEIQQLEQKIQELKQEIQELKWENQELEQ [4H331-bN]
-0.762
